Cited source for all entries: patent US11866408B2

assay-info: Single intravenous dose pharmacokinetics study in rats (1 mg/kg IV; plasma levels of prodrug and of DMT or 5-MeO-DMT by LC-MS/MS)
condition: male, Sprague-Dawley, rat, plasma, iv, 1 mg/kg, MRT (h), IV 1 mg/kg, analyte = dosed compound
Listing: MRT of selected molecules
endpoint-label: MRT (min)

In [3]: df
Out[3]:
                                   molecule  endpoint_label  assay_value
0  CN(C)CCc1c[nH]c2ccccc12 [DMT, N,N-dimethyltryptamine]             MRT         9.12
1  COc1ccc2c(c1)c(CCN(C)C)cn2P(=O)(OC(C)C)OC(C)C [Diisopropylphosphonate 5-MeO-DMT Prodrug]             MRT         83.4
2  COc1ccc2[nH]cc(CCN(C)C)c2c1 [Compound 5-MeO-DMT, 5-methoxy-N,N-dimethyltryptamine, reference compound]             MRT         37.4
3  CCOC(=O)n1cc(CCN(C)C)c2ccccc21 [Compound 20]             MRT         48.6
4  CC(C)OP(=O)(OC(C)C)n1cc(CCN(C)C)c2ccccc21 [Diisopropylphosphonate DMT Prodrug]             MRT         52.1
